# Tested on: Cannabinoid receptor 2 (Homo sapiens)
# Test: Positive allosteric modulation at human CB2 receptor expressed in CHO cells assessed as inhibition of forskolin-induced cAMP production incubated for 90 mins in presence of FM6b by HitHunter assay
# Type: functional, cell-based
Measured endpoint: pEC50
Please note pEC50 is a logarithmic value: minus log10 of concentration in mol/L. Answer with that number alone.

**Query** What does the data say about its pEC50? Entry: O=[N+]([O-])CC(c1ccccc1)c1c(-c2ccccc2)[nH]c2ccccc12 (stereo unspecified)
**Result** 6.77

====

# Tested on: Cannabinoid receptor 1 (Homo sapiens, UniProt P21554)
# Sequence (P21554 whole entry): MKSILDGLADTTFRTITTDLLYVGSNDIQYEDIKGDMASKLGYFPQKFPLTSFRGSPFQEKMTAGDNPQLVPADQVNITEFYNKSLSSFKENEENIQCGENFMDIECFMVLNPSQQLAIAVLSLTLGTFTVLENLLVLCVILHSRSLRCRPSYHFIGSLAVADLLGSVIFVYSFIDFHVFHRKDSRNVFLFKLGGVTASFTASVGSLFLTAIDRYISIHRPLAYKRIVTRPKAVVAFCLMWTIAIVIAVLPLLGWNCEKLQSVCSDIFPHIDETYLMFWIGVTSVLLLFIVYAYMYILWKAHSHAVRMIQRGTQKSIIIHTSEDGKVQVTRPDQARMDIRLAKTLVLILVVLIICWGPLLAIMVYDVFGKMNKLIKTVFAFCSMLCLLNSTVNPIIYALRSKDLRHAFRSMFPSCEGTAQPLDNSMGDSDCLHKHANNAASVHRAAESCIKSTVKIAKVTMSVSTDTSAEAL
# Test: Agonist activity at human CB1 receptor expressed in CHO cells assessed as inhibition of forskolin-induced cAMP production incubated for 90 mins in presence of FM6b ligand by HitHunter assay
# Format: functional, cell-based
pEC50: −log10 of the molar value.
Record Fulfilled whenever pEC50 is at 6 or higher; record Not fulfilled when lower.

**Query** Please indicate if the recorded pEC50 for Cc1c(Br)cc(C(=O)NC2CCCCCC2)c(=O)n1CCCn1cc(CCCCC(=O)NCC(c2ccccc2)c2c(-c3ccccc3)[nH]c3ccccc23)nn1 (stereo unspecified) meets or exceeds 6.
**Result** Fulfilled

**Query** // query: Cc1c(Br)cc(C(=O)NC2CCCCCC2)c(=O)n1CCCCCn1cc(CCC(=O)NCC(c2ccccc2)c2c(-c3ccccc3)[nH]c3ccccc23)nn1 (stereo unspecified)
**Result** Not fulfilled

**Query** // query: Cc1c(Br)cc(C(=O)NC2CCCCCC2)c(=O)n1CCCn1cc(CCCC(=O)NCC(c2ccccc2)c2c(-c3ccccc3)[nH]c3ccccc23)nn1 (stereo unspecified)
**Result** Fulfilled

**Query** // query: Cc1c(Br)cc(C(=O)NC2CCCCCC2)c(=O)n1CCCCCn1cc(CCCC(=O)NCC(c2ccccc2)c2c(-c3ccccc3)[nH]c3ccccc23)nn1 (stereo unspecified)
**Result** Not fulfilled

**Query** // query: Cc1c(Br)cc(C(=O)NC2CCCCCC2)c(=O)n1CCCn1cc(CCC(=O)NCC(c2ccccc2)c2c(-c3ccccc3)[nH]c3ccccc23)nn1 (stereo unspecified)
**Result** Not fulfilled

**Query** // query: Cc1c(Br)cc(C(=O)NC2CCCCCC2)c(=O)n1CCCCCn1cc(CCCCC(=O)NCC(c2ccccc2)c2c(-c3ccccc3)[nH]c3ccccc23)nn1 (stereo unspecified)
**Result** Fulfilled

====

# Tested on: Cannabinoid receptor 2 (Homo sapiens, UniProt P34972)
# Sequence (P34972 whole entry): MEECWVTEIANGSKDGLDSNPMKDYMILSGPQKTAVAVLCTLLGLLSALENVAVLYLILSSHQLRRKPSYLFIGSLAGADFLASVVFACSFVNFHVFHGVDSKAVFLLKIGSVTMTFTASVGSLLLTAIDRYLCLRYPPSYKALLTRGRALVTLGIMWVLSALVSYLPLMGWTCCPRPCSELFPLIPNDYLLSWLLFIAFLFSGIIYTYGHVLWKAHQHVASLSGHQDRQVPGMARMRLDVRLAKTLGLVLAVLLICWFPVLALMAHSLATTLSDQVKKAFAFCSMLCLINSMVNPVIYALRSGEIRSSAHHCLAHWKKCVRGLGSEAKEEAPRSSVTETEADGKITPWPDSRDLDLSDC
# Test: Agonist activity at human CB2 receptor expressed in CHO cells assessed as inhibition of forskolin-induced cAMP production incubated for 90 mins in presence of CP55940 ligand by HitHunter assay
# Type: functional, cell-based
Measured endpoint: pEC50
Please note pEC50 is a logarithmic value: minus log10 of concentration in mol/L. Answer with that number alone.

**Query** What does the data say about its pEC50? Entry: Cc1c(Br)cc(C(=O)NC2CCCCCC2)c(=O)n1CCCn1cc(CCCC(=O)NCC(c2ccccc2)c2c(-c3ccccc3)[nH]c3ccccc23)nn1 (configuration not stated)
**Result** 8.10

**Query** // query: Cc1c(Br)cc(C(=O)NC2CCCCCC2)c(=O)n1CCCn1cc(CCC(=O)NCC(c2ccccc2)c2c(-c3ccccc3)[nH]c3ccccc23)nn1 (configuration not stated)
**Result** 8.00

====

# Tested on: Cannabinoid receptor 2 (Homo sapiens)
# Test: Agonist activity at human CB2 receptor expressed in CHO cells assessed as inhibition of forskolin-induced cAMP production incubated for 90 mins in presence of FM6b ligand by HitHunter assay
# Format: functional, cell-based
For each of the molecules below, state its EC50.
All answers are understood in nM, so give the number only.

**Query** What does the data say about its EC50? Entry: Cc1c(Br)cc(C(=O)NC2CCCCCC2)c(=O)n1CCCn1cc(CCC(=O)NCC(c2ccccc2)c2c(-c3ccccc3)[nH]c3ccccc23)nn1 (configuration not stated)
**Result** 316

**Query** // query: Cc1c(Br)cc(C(=O)NC2CCCCCC2)c(=O)n1CCCn1cc(CCCC(=O)NCC(c2ccccc2)c2c(-c3ccccc3)[nH]c3ccccc23)nn1 (configuration not stated)
**Result** 398

====

# Tested on: Cannabinoid receptor 2 (Homo sapiens, UniProt P34972)
# Test: Displacement of [3H]CP55940 from human CB2 receptor expressed in CHO cell membrane at 0.001 to 10 uM incubated for 2 hrs relative to control
# Type: cell membranes
# Condition label: filed as agonist, dose 0.001-10 µM
For each of the molecules below, state its Emax.
All answers are understood in %, so give the number only.

**Query** What does the data say about its Emax? Entry: Cc1c(Br)cc(C(=O)NC2CCCCCC2)c(=O)n1CCCn1cc(CCCC(=O)NCC(c2ccccc2)c2c(-c3ccccc3)[nH]c3ccccc23)nn1 (stereo unspecified)
**Result** 160

**Query** // query: Cc1c(Br)cc(C(=O)NC2CCCCCC2)c(=O)n1CCCCCn1cc(CCCCC(=O)NCC(c2ccccc2)c2c(-c3ccccc3)[nH]c3ccccc23)nn1 (stereo unspecified)
**Result** 201

**Query** // query: Cc1c(Br)cc(C(=O)NC2CCCCCC2)c(=O)n1CCCn1cc(CCCCC(=O)NCC(c2ccccc2)c2c(-c3ccccc3)[nH]c3ccccc23)nn1 (stereo unspecified)
**Result** 97

**Query** // query: Cc1c(Br)cc(C(=O)NC2CCCCCC2)c(=O)n1CCCn1cc(CCC(=O)NCC(c2ccccc2)c2c(-c3ccccc3)[nH]c3ccccc23)nn1 (stereo unspecified)
**Result** 130

**Query** // query: Cc1c(Br)cc(C(=O)NC2CCCCCC2)c(=O)n1CCCCCn1cc(CCCC(=O)NCC(c2ccccc2)c2c(-c3ccccc3)[nH]c3ccccc23)nn1 (stereo unspecified)
**Result** 44

**Query** // query: Cc1c(Br)cc(C(=O)NC2CCCCCC2)c(=O)n1CCCCCn1cc(CCC(=O)NCC(c2ccccc2)c2c(-c3ccccc3)[nH]c3ccccc23)nn1 (stereo unspecified)
**Result** 80

====

# Tested on: Cannabinoid receptor 1 (Homo sapiens, UniProt P21554)
# Test: Agonist activity at human CB1 receptor expressed in CHO cells assessed as inhibition of forskolin-induced cAMP production at 100 nM incubated for 90 mins in presence of GAT211 ligand by HitHunter assay relative to control
# Format: functional, cell-based
Rule: Emax below 3% gives Yes. Equal to or above 3% gives No.

**Query** Could you please tell me whether Emax recorded for Cc1c(Br)cc(C(=O)NC2CCCCCC2)c(=O)n1CCCn1cc(CCCCC(=O)NCC(c2ccccc2)c2c(-c3ccccc3)[nH]c3ccccc23)nn1 (stereo unspecified) is less than 3%?
**Result** No

**Query** // query: Cc1c(Br)cc(C(=O)NC2CCCCCC2)c(=O)n1CCCCCn1cc(CCCC(=O)NCC(c2ccccc2)c2c(-c3ccccc3)[nH]c3ccccc23)nn1 (stereo unspecified)
**Result** No

**Query** // query: Cc1c(Br)cc(C(=O)NC2CCCCCC2)c(=O)n1CCCCCn1cc(CCC(=O)NCC(c2ccccc2)c2c(-c3ccccc3)[nH]c3ccccc23)nn1 (stereo unspecified)
**Result** Yes

**Query** // query: Cc1c(Br)cc(C(=O)NC2CCCCCC2)c(=O)n1CCCCCn1cc(CCCCC(=O)NCC(c2ccccc2)c2c(-c3ccccc3)[nH]c3ccccc23)nn1 (stereo unspecified)
**Result** No

**Query** // query: Cc1c(Br)cc(C(=O)NC2CCCCCC2)c(=O)n1CCCn1cc(CCCC(=O)NCC(c2ccccc2)c2c(-c3ccccc3)[nH]c3ccccc23)nn1 (stereo unspecified)
**Result** Yes

**Query** // query: Cc1c(Br)cc(C(=O)NC2CCCCCC2)c(=O)n1CCCn1cc(CCC(=O)NCC(c2ccccc2)c2c(-c3ccccc3)[nH]c3ccccc23)nn1 (stereo unspecified)
**Result** No

====

For each of the compounds below, state its IC50.
# Tested on: Cannabinoid receptor 1 (Homo sapiens, UniProt P21554)
# Test: Displacement of [3H]CP55940 from human CB1 receptor expressed in CHO cell membrane incubated for 2 hrs

**Query** What does the data say about its IC50? Entry: Cc1c(Br)cc(C(=O)NC2CCCCCC2)c(=O)n1CCCCCn1cc(CCCCC(=O)NCC(c2ccccc2)c2c(-c3ccccc3)[nH]c3ccccc23)nn1 (stereo not drawn)
**Result** 0.126 µM

**Query** // query: Cc1c(Br)cc(C(=O)NC2CCCCCC2)c(=O)n1CCCn1cc(CCCC(=O)NCC(c2ccccc2)c2c(-c3ccccc3)[nH]c3ccccc23)nn1 (stereo not drawn)
**Result** 0.0251 µM

**Query** // query: Cc1c(Br)cc(C(=O)NC2CCCCCC2)c(=O)n1CCCCCn1cc(CCC(=O)NCC(c2ccccc2)c2c(-c3ccccc3)[nH]c3ccccc23)nn1 (stereo not drawn)
**Result** 0.02 µM
